- system_tested: mu opiate receptor (MOR) (Rattus norvegicus)
- Construct: from tissue; host or cells: striatal membrane preparation (rat striatum)
- Sequence (P33535 whole entry): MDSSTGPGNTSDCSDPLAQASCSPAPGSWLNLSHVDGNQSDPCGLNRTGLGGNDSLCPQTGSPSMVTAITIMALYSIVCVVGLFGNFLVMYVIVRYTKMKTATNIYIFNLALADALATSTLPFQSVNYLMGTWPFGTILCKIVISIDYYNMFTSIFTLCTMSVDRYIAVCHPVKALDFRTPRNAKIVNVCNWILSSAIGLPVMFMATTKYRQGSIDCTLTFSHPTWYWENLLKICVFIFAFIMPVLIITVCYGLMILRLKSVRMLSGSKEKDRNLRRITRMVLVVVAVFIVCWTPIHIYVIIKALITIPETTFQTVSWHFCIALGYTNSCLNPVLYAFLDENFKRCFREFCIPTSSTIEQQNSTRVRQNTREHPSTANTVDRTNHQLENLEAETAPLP
- method_notes: MOR agonist activity, [35S]GTPγS binding assay using striatal membranes
- Type: biochemical
- Parameters: reference not given here
- test_parameters: 1 μM compound + BFNA (1 μM β-funaltrexamine)
Readings of MOR agonist activity, [35S]GTPγS binding to Gαo for the listed compounds
outcome_measure: MOR agonist activity, [35S]GTPγS binding to Gαo (%)

compound: CCN1CCC2(CC1)OCCN2S(=O)(=O)c1ccc(C(C)=O)cc1 [Compound C0094M]
readout_number: 115.3
--
compound: CC(=O)c1ccc(S(=O)(=O)N2CCOC23CCN(CC(=O)O)CC3)cc1 [Compound C0100M]
readout_number: 195.6
--
compound: O=[N+]([O-])c1ccc(S(=O)(=O)N2CCC3(CC2)NCCO3)cc1
readout_number: 90.4
--
compound: CCN1CCC2(CC1)OCCN2S(=O)(=O)c1ccc(OC)cc1 [Compound C0089M]
readout_number: 81.9
--
compound: CC(=O)c1ccc(S(=O)(=O)N2C(Cc3c[nH]cn3)C(=O)NC23CCNCC3)cc1 (stereo not drawn) [Compound C0119M]
readout_number: 35.1
--
compound: CCCCN1CCC2(CC1)OCCN2S(=O)(=O)c1ccc(C(C)=O)cc1 [Compound C0101M]
readout_number: 174.8
--
compound: CC(=O)c1ccc(S(=O)(=O)N2CC(=O)NC23CCNCC3)cc1 [Compound C0086M]
readout_number: 152.3
--
compound: C=CCN1CCC2(CC1)OCCN2S(=O)(=O)c1ccc(C(C)=O)cc1 [Compound C0096M]
readout_number: 127.1
--
compound: COc1ccc(S(=O)(=O)N2CCOC23CCN(C(C)C)CC3)cc1 [Compound C0133M]
readout_number: 72.4
--
compound: CC(=O)N1CCSC12CCN(S(=O)(=O)c1ccc([N+](=O)[O-])cc1)CC2
readout_number: 59.0
--
compound: COc1ccc(S(=O)(=O)N2CCC3(CC2)NCCO3)cc1
readout_number: 21.2
--
compound: Cc1ccc(S(=O)(=O)N2CCOC23CCN(CC2CC2)CC3)cc1 [Compound C0134M]
readout_number: 46.6
--
compound: CC(=O)c1ccc(S(=O)(=O)N2CC(CN(C)C)OC23CCNCC3)cc1 (stereo not drawn) [Compound C0118M]
readout_number: 79.2
--
compound: CS(=O)(=O)c1ccc(S(=O)(=O)N2CCOC23CCNCC3)cc1 [Compound C0116M]
readout_number: 152.0
--
compound: C=CCN1CCC2(CC1)OCCN2S(=O)(=O)c1ccc(OC)cc1 [Compound C0091M]
readout_number: 80.8
--
compound: COc1ccc(S(=O)(=O)N2CCOC23CCN(C(=O)OC(C)(C)C)CC3)cc1
readout_number: 83.3
--
compound: COc1ccc(S(=O)(=O)N2CCSC23CCNCC3)cc1
readout_number: 56.2
--
compound: COc1ccc(S(=O)(=O)N2CCC3(CC2)NCCC(=O)N3)cc1 [Compound C0142M]
readout_number: 98.7
